# test.method.notes: Probe fluorescence ratio response to linolenic acid relative to ADIFAB2
# Format: binding
# experimental.setup: response relative to ADIFAB2
Listing of recorded DR/DR LNA by entry.
Output: the number by itself.

Here's what some known entries look like.
18V 31V 73I 72A (protein, listed as Rattus norvegicus, PEPTIDE (1)...(131) wild-type rat intestinal fatty acid binding protein) AFDGTWKVDRNENYEKFVEKMGINVVKRKLVAHDNLKLTITQEGNKFTVKESSNFRNIDVVFELGVDFAYSAIDGTELTGTWTMEGNKLVGKFKRVDNGKELIAVREISGNELIQTYTYEGVEAKRIFKKE: 1.531
72S 73V 74A (protein, listed as Rattus norvegicus, PEPTIDE (1)...(131) wild-type rat intestinal fatty acid binding protein) AFDGTWKVDRNENYEKFMEKMGINVVKRKLGAHDNLKLTITQEGNKFTVKESSNFRNIDVVFELGVDFAYSSVAGTELTGTWTMEGNKLVGKFKRVDNGKELIAVREISGNELIQTYTYEGVEAKRIFKKE: 2.330

For the next question, use this molecule.
Recorded DR/DR LNA of 55G1, 72A (protein, listed as Rattus norvegicus, PEPTIDE (1)...(131) wild-type rat intestinal fatty acid binding protein) AFDGTWKVDRNENYEKFMEKMGINVVKRKLGAHDNLKLTITQEGNKFTVKESSNGRNIDVVFELGVDFAYSAADGTELTGTWTMEGNKLVGKFKRVDNGKELIAVREISGNELIQTYTYEGVEAKRIFKKE , please.
0.23
